- Tested on: Salmonella typhi (ATCC 14028)
- Protocol: Microplate Alamar Blue Assay, Salmonella typhi
- Format: cell-based
- Condition: Salmonella enterica; 200 μg/mL; NI = No inhibition; read-out: Percentage (%) Inhibition, Slamonella typhi
Experimental endpoint: inhibition at 200 µg/mL (%)
Numbers only, in %.

Please review the following examples before continuing.
Item under review: Cc1cc(C)nc(NS(=O)(=O)c2ccc(NC(=O)C34CCC(C)(C(=O)O3)C4(C)C)cc2)n1 (stereo not drawn) . Reported inhibition at 200 µg/mL? 29.3

Item under review: `Cc1cc(C)nc(NS(=O)(=O)c2ccc(NC(=O)c3ccc(Cl)cc3Cl)cc2)n1` . Reported inhibition at 200 µg/mL? 18.4

Item under review: `Cc1cc(C)nc(NS(=O)(=O)c2ccc(NC(=O)c3cccc(Cl)c3)cc2)n1` . Reported inhibition at 200 µg/mL? 14.6

Item under review: `Cc1cc(C)nc(NS(=O)(=O)c2ccc(NC(=O)c3ccc(C(F)(F)F)cc3)cc2)n1` . Reported inhibition at 200 µg/mL? 0.99

Item under review: `Cc1cc(C)nc(NS(=O)(=O)c2ccc(NC(=O)c3cccc(F)c3)cc2)n1` . Reported inhibition at 200 µg/mL? 19.4

Parameters: items (list). Returns: inhibition at 200 µg/mL for each item.
1. Cc1cc(C)nc(NS(=O)(=O)c2ccc(NC(=O)c3cc(F)cc(C(F)(F)F)c3)cc2)n1
2. Cc1cc(C)nc(NS(=O)(=O)c2ccc(NC(=O)c3ccccc3Br)cc2)n1
3. Cc1cc(C)nc(NS(=O)(=O)c2ccc(NC(=O)c3ccc(Br)cc3)cc2)n1
4. Cc1cc(C)nc(NS(=O)(=O)c2ccc(NC(=O)c3ccc(F)cc3)cc2)n1
5. Cc1cc(C)nc(NS(=O)(=O)c2ccc(NC(=O)c3cc(F)cc(F)c3)cc2)n1

[29.4, 11.1, 14.1, 19, 13.1]

Item under review: `Cc1cc(C)nc(NS(=O)(=O)c2ccc(NC(=O)c3ccc(C(F)(F)F)c(F)c3)cc2)n1` . Reported inhibition at 200 µg/mL? 0.94
